Each item that follows carries a reported koff.
target: T1, cynomolgus mesothelin (cynomolgus); assay: SPR
T1 construct: also called cynoMSLN; Cyno MSLN

BINDER	koff (s⁻¹)
HuAM6 (antibody, V domains shown, fully human antibody) VH: EVQLVQSGAEVKKPGASVKVSCKASGDTFNRYYVHWVRQAPGQGLEWMGIINPSGVSTTYAQKFQGRVTMTRDTSTSTVYMELSSLRSEDTAVYYCAESRVPGYNNFAMDVWGQGTLVTVSS VL: SYELTQPPSVSVSPGQTASITCSGDKLGDKYASWYQQKPGQSPVLVIYQDNRRPSGIPERFSGSNSGNTATLTISGTQAMDEADYYCQAWDSDTYVFGTGTKVTVL	8.5e-05
HuAM15 (antibody, V domains shown, fully human antibody) VH: EVQLVQSGAEVKKPGASVKVSCKASGDTFKRYYVHWVRQAPGQGLEWMGIINPSGVSTTYAQKFQGRVTMTRDTSTSTVYMELSSLRSEDTAVYYCAEVRGSGFNYFGMDVWGQGTLVTVSS VL: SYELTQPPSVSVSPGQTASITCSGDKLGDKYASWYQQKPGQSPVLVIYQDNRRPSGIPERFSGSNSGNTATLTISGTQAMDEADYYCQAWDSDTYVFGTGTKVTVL	0.00018
